- SYSTEM_UNDER_TEST: UCHL1, P09936
- Sequence (P09936 whole entry, looked up, the tested form may be a part): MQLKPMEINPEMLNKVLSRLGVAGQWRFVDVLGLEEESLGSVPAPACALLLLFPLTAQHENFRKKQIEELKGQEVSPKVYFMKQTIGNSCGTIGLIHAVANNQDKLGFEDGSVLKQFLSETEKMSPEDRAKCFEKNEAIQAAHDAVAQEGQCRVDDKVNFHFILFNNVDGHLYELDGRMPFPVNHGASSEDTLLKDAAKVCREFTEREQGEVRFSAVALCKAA
- TEST_NAME: median log2 fold change of GCK-ALFA target abundance (FLAG IP / Myc IP barcode read proportion) (log2 ratio); each designed protein is fused to an ALFA-tag nanobody in HEK293 cells to bring the named protein to FLAG-tagged glucokinase (GCK); Myc marks an untargeted standard; higher = target protein stabilised (more abundant)
- MEASUREMENT_PARAMETERS: target protein: 3xFLAG-MCP-GCK-ALFA reporter; HEK293 landing pad (RPLP)
READOUT: median log2 fold change
A bare number is all that is needed in reply.

BINDER: uchl1_122_7435 (protein) MITVEVLVTSSLSPAVLAIIKEYASRLLDNAEFELRRVDPGTLLLTVTGELKDVSDEEILAIRREAEERAAKDQTLTPNQRVSFGNALRRIARAVAKALA
median log2 fold change: -0.0374

// below: median log2 fold change requested for another binder
Input uchl1_2_7556 (protein) KTVFVGVAIDLTSTNPETGEVFRSRRTLIGTASAIEAMAEEVRELILRFREETGGPVEVRILVVSSDEAVARRLVALLEAMAAELAAEGVTVTVTRRVLK . Output median log2 fold change: -0.249
